Reference source: the Deep4Chem optical property database

- ASSAY PROTOCOL: solvent given as SMILES
- MEASUREMENT PARAMETERS: in CCCO
Listing of recorded absorption maximum by entry.

[
  {
    "STRUCTURE": "COc1ccc(C#Cc2ccc(C#N)cc2)cc1OC",
    "absorption maximum": "329 nm"
  },
  {
    "STRUCTURE": "CN(C)c1ccc(/C=C/c2ccc(-c3nnc(-c4ccc(-c5cc6ccccc6s5)cc4)o3)cc2)cc1",
    "absorption maximum": "341 nm"
  },
  {
    "STRUCTURE": "Cc1cc(C2(c3cc(C)c(O)c(Br)c3)OS(=O)(=O)c3ccccc32)cc(Br)c1O",
    "absorption maximum": "415 nm"
  },
  {
    "STRUCTURE": "CCC1(CC)c2cc(B(c3c(C)cc(C)cc3C)c3c(C)cc(C)cc3C)ccc2-c2c1c1c(c3c2C(CC)(CC)c2cc(N(c4ccccc4)c4ccccc4)ccc2-3)C(CC)(CC)c2cc(B(c3c(C)cc(C)cc3C)c3c(C)cc(C)cc3C)ccc2-1",
    "absorption maximum": "360 nm"
  },
  {
    "STRUCTURE": "CCC[n+]1ccc(/C=C/c2ccc(N(C)C)cc2)cc1",
    "absorption maximum": "487 nm"
  },
  {
    "STRUCTURE": "CS(=O)(=O)c1ccc(-c2cc3ccc(N)cc3c(=O)o2)cc1",
    "absorption maximum": "366 nm"
  },
  {
    "STRUCTURE": "CCCCCCCCCCCCCCCC[n+]1ccc(/C=C(\\C)c2ccccc2)cc1",
    "absorption maximum": "398.5 nm"
  },
  {
    "STRUCTURE": "CCCCCCCCCCCCCCCC[n+]1ccc(/C=C/c2ccccc2O)cc1",
    "absorption maximum": "518.9 nm"
  },
  {
    "STRUCTURE": "Oc1ccccc1/N=C/c1ccccc1Oc1ccccc1",
    "absorption maximum": "351 nm"
  },
  {
    "STRUCTURE": "Oc1ccc(/N=C/c2ccccc2Oc2ccccc2)cc1",
    "absorption maximum": "345 nm"
  },
  {
    "STRUCTURE": "CN(C)c1ccc(/C=C/c2cc[n+](Cc3cc(C[n+]4ccc(/C=C/c5ccc(N(C)C)cc5)cc4)cc(C[n+]4ccc(/C=C/c5ccc(N(C)C)cc5)cc4)c3)cc2)cc1",
    "absorption maximum": "495 nm"
  },
  {
    "STRUCTURE": "O=Cc1cc(O)ccc1O",
    "absorption maximum": "367 nm"
  },
  {
    "STRUCTURE": "COC(=O)c1c2ccccc2nc2ccccc12",
    "absorption maximum": "361 nm"
  },
  {
    "STRUCTURE": "CN1CCN(c2ccc3c4c(cccc24)C(=O)c2ccccc2-3)CC1",
    "absorption maximum": "455.4 nm"
  },
  {
    "STRUCTURE": "N#Cc1c(-c2ccccc2)cc(-c2ccccc2)[nH]c1=S",
    "absorption maximum": "431 nm"
  },
  {
    "STRUCTURE": "c1ccc(-c2cc(-c3ccc4ccc5cccc6ccc3c4c56)ccn2)nc1",
    "absorption maximum": "342.99 nm"
  },
  {
    "STRUCTURE": "O=C1c2ccccc2-c2ccc(N3CCN(c4ccccc4)CC3)c3cccc1c23",
    "absorption maximum": "445 nm"
  },
  {
    "STRUCTURE": "COCCOc1ccc(OCCOC)c(C=O)c1",
    "absorption maximum": "349 nm"
  },
  {
    "STRUCTURE": "COc1ccc(OC)c(C=O)c1",
    "absorption maximum": "352 nm"
  },
  {
    "STRUCTURE": "CN(C)c1ccc(-c2nc3cnccc3[nH]2)cc1",
    "absorption maximum": "339 nm"
  },
  {
    "STRUCTURE": "CCc1ccc(/C=C/c2ccc(-c3nnc(-c4ccc(-c5cc6ccccc6s5)cc4)o3)cc2)cc1",
    "absorption maximum": "347 nm"
  }
]
